Sourced from ChEMBL document CHEMBL1133477

# TARGET UNDER TEST: Intercellular adhesion molecule (ICAM-1), Integrin alpha-L/beta-2 (Homo sapiens, UniProt P05107+P20701)
# Sequence (P20701 whole entry): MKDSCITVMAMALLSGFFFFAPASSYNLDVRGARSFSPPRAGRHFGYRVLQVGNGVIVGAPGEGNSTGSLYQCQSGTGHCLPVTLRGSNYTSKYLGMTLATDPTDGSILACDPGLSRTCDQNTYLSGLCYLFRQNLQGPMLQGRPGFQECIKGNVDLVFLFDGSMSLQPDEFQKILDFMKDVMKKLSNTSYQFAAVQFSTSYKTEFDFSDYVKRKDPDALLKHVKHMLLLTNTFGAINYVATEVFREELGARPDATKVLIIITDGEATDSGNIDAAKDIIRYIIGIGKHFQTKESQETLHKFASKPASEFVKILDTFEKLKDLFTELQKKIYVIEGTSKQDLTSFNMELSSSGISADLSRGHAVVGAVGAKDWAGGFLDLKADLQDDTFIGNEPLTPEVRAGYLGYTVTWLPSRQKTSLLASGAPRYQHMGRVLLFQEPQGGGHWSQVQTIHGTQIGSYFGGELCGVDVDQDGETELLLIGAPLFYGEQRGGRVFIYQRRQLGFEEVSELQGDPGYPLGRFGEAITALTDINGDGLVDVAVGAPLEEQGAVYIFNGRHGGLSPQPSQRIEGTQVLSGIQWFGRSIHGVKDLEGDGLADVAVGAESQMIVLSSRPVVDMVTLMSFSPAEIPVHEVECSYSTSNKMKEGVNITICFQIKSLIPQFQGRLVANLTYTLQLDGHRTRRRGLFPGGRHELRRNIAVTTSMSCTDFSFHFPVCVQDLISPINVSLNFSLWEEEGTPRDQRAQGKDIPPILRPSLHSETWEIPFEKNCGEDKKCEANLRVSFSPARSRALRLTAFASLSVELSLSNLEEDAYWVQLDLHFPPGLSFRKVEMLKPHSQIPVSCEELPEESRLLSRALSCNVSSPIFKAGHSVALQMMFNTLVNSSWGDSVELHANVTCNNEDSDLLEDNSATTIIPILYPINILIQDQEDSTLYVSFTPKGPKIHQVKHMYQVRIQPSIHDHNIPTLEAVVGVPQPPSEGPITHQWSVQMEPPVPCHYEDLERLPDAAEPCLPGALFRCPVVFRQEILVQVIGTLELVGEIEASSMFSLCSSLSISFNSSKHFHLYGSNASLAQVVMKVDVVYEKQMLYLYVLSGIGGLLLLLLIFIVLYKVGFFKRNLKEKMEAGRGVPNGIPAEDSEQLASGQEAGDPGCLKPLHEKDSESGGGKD
# Sequence (P05362 whole entry, further chain): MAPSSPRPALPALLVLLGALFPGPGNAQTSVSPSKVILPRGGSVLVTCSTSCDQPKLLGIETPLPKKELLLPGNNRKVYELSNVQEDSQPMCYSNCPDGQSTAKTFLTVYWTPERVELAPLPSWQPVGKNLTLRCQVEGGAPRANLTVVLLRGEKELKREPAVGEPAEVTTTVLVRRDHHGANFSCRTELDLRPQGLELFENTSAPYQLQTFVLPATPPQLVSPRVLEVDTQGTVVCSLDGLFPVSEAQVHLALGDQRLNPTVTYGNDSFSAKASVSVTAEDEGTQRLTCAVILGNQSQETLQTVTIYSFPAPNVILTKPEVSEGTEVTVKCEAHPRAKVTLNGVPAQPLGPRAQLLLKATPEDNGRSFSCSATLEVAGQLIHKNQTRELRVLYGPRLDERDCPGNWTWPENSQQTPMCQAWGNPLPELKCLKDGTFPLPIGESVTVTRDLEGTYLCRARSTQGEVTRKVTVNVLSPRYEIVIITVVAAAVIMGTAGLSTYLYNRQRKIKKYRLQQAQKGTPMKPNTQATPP
# Sequence (P05107 whole entry): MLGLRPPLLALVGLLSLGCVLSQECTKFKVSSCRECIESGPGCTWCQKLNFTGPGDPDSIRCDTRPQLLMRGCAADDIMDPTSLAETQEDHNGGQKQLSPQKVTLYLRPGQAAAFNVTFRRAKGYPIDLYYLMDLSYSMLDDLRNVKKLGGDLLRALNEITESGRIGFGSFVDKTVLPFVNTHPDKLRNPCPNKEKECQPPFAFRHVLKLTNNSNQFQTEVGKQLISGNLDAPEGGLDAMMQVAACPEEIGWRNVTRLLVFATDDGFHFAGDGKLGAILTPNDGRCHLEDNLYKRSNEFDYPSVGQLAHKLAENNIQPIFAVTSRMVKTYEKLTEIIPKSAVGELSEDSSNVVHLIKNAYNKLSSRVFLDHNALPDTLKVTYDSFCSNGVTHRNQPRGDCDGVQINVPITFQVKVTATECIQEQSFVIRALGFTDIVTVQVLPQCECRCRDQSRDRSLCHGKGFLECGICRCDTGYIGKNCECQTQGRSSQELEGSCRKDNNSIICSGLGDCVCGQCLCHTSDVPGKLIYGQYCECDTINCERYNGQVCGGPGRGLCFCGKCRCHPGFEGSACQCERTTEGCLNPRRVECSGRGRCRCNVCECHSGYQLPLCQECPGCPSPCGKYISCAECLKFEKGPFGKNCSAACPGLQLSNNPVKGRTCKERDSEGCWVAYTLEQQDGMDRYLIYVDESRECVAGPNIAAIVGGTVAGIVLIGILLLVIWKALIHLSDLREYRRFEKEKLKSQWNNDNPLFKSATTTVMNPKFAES
# EXPERIMENT NOTES: Inhibition against binding of LFA-1 to ICAM-1
# Format: protein-complex assay
MEASURED ATTRIBUTE: IC50 (µM)
Answers are plain numbers, in µM.

### Prompt Specify reported IC50 for the compound shown: `Nc1ccc(Sc2ccc(Cl)cc2Cl)c(Cl)c1`
### Response 1.7

--- query ---
### Prompt Specify reported IC50 for the compound shown: CN(C)CCN1c2ccccc2Sc2ccc(Cl)cc21 [CHOLRPHENETHAZINE]
### Response 28

###

Could you please report measured pIC50 for the items listed next?
# TARGET UNDER TEST: Intercellular adhesion molecule (ICAM-1), Integrin alpha-L/beta-2 (Homo sapiens, UniProt P05107+P20701)
# EXPERIMENT NOTES: Ability to block the interaction between integrin LFA-1 and its adhesion partner ICAM-1 in a time-resolved fluorescent LFA-1/ICAM-1 biochemical interaction assay
# Assay type: protein-complex assay
Numbers only, as −log10 of the molar value.

Use these answered entries as a reference point.
### Prompt Specify reported pIC50 for the compound shown: `CC(=O)N1CCN(C(=O)/C=C/c2ccc(Sc3ccccc3C(N)=O)c([N+](=O)[O-])c2)CC1`
### Response 4.79

### Prompt Specify reported pIC50 for the compound shown: `CC(=O)N1CCN(C(=O)/C=C/c2ccc(Sc3ccccc3C=O)c([N+](=O)[O-])c2)CC1`
### Response 7.22

### Prompt Specify reported pIC50 for the compound shown: `O=C(/C=C/c1ccccc1Sc1ccc(Cl)cc1Cl)NCCCN1CCCC1=O`
### Response 5.80

### Prompt Specify reported pIC50 for the compound shown: `O=C(/C=C/c1ccc(Sc2ccc(Cl)cc2Cl)c(Cl)c1)N1CCN(c2ccccn2)CC1`
### Response 6.12

### Prompt Specify reported pIC50 for the compound shown: `O=C(/C=C/c1ccc(Sc2ccc(Cl)cc2Cl)c(Cl)c1)NCCO`
### Response 6.04

The following compounds each have a reported value; give each one's pIC50.
1. O=C(/C=C/c1cccc(Sc2ccc(Cl)cc2Cl)c1)NCCCCCCO
2. CN(C)CCC(=O)Nc1ccccc1Sc1ccc(Cl)cc1Cl
3. CCc1ccccc1Sc1ccc(/C=C/C(=O)N2CCN(C(C)=O)CC2)cc1[N+](=O)[O-]
4. O=C(/C=C/c1ccccc1Sc1ccc(Cl)cc1Cl)N1CCOCC1
5. O=C(/C=C/c1ccc(Sc2ccc(Cl)cc2Cl)c(Br)c1)NCCCN1CCCC1=O

### Response
1: 5.01; 2: 4.09; 3: 7.19; 4: 5.92; 5: 6.19

###

# TARGET UNDER TEST: Intercellular adhesion molecule (ICAM-1), Integrin alpha-L/beta-2 (Homo sapiens, UniProt P05107+P20701)
# EXPERIMENT NOTES: Ability to block the interaction between integrin LFA-1 and its adhesion partner ICAM-1 in a time-resolved fluorescent LFA-1/ICAM-1 biochemical interaction assay
# Format: protein-complex assay
Could you please report measured IC50 for the items listed next?

Use these answered entries as a reference point.
### Prompt Specify reported IC50 for the molecule shown: `CC(=O)N1CCN(C(=O)/C=C/c2ccc(Sc3ccccc3C)c([N+](=O)[O-])c2)CC1`
### Response 120 nM

### Prompt Specify reported IC50 for the molecule shown: `O=C(/C=C/c1cccc(Sc2ccc(Cl)cc2Cl)c1)NCCCn1ccnc1`
### Response 7000 nM

### Prompt Specify reported IC50 for the molecule shown: `O=C(/C=C/c1ccccc1Sc1ccc(Cl)cc1Cl)NCCCn1ccnc1`
### Response 960 nM

### Prompt Specify reported IC50 for the molecule shown: `O=C(O)c1cc(/C=C/C(=O)N2CCOCC2)ccc1Sc1ccc(Cl)cc1Cl`
### Response > 20000 nM

### Prompt Specify reported IC50 for the molecule shown: `O=C(/C=C/c1ccc(Sc2ccccc2CN2CCOCC2)c(Cl)c1)N1CCOCC1`
### Response 150 nM

The following molecules each have a reported value; give each one's IC50.
1. CC(=O)N1CCN(C(=O)/C=C/c2ccc(Sc3ccccc3C(C)(C)C)c([N+](=O)[O-])c2)CC1
2. CC(=O)N1CCN(C(=O)/C=C/c2ccc(Sc3ccc(Cl)cc3Cl)c(Cl)c2)CC1
3. O=C(/C=C/c1ccc(Sc2ccc(Cl)cc2Cl)c(Cl)c1)NCCCCCCO
4. O=C(/C=C/c1ccc(Sc2ccc(Cl)cc2Cl)c(Cl)c1)N1CCOCC1
5. O=C(CCN1CCCC1)Nc1ccccc1Sc1ccc(Cl)cc1Cl

### Response
530 nM
140 nM
590 nM
460 nM
> 10000 nM

###

# TARGET UNDER TEST: Intercellular adhesion molecule (ICAM-1), Integrin alpha-L/beta-2 (Homo sapiens, UniProt P05107+P20701)
# EXPERIMENT NOTES: Ability to block the interaction between integrin LFA-1 and its adhesion partner ICAM-1 in a time-resolved fluorescent LFA-1/ICAM-1 biochemical interaction assay
# Type: protein-complex assay
Could you please report measured pIC50 for the items listed next?
One number for each entry, as −log10 of the molar value.

Use these answered entries as a reference point.
### Prompt Specify reported pIC50 for the compound shown: `Clc1ccc(Sc2ccccc2NCCCN2CCOCC2)c(Cl)c1`
### Response 6.85

### Prompt Specify reported pIC50 for the compound shown: `CC(=O)N1CCN(C(=O)/C=C/c2ccc(Sc3ccc(Cl)cc3Cl)c(/C=C/C(=O)N3CCOCC3)c2)CC1`
### Response 4.74

### Prompt Specify reported pIC50 for the compound shown: `CCOC(=O)CN(C)Cc1ccccc1Sc1ccc(/C=C/C(=O)N2CCOCC2)cc1Cl`
### Response 6.59

### Prompt Specify reported pIC50 for the compound shown: `CC(=O)N1CCN(C(=O)/C=C/c2ccc(Sc3ccc(Cl)cc3Cl)c([N+](=O)[O-])c2)CC1`
### Response 7.05

### Prompt Specify reported pIC50 for the compound shown: `O=C(/C=C/c1ccc(Sc2ccc(Cl)cc2Cl)c(NCCCN2CCOCC2)c1)NCCCN1CCCC1=O`
### Response 4.81

### Prompt Specify reported pIC50 for the compound shown: `O=C(/C=C/c1ccccc1Sc1ccc(Cl)cc1Cl)NCCO`
### Response 5.48

### Prompt Specify reported pIC50 for the compound shown: `CN1CCN(C(=O)/C=C/c2ccc(Sc3ccc(Cl)cc3Cl)c(Cl)c2)CC1`
### Response 5.96

More entries:
### Prompt Specify reported pIC50 for the compound shown: `CC(=O)N1CCN(C(=O)/C=C/c2ccc(Sc3cccc(Cl)c3Cl)c([N+](=O)[O-])c2)CC1`
### Response 7.00

###

# TARGET UNDER TEST: Intercellular adhesion molecule (ICAM-1), Integrin alpha-L/beta-2 (Homo sapiens, UniProt P05107+P20701)
# EXPERIMENT NOTES: Ability to block the interaction between integrin LFA-1 and its adhesion partner ICAM-1 in a time-resolved fluorescent LFA-1/ICAM-1 biochemical interaction assay
# Type: protein-complex assay
Could you please report measured IC50 for the items listed next?
One number for each entry, in µM.

Use these answered entries as a reference point.
### Prompt Specify reported IC50 for the molecule shown: `CN1CCN(CCC(=O)Nc2ccccc2Sc2ccc(Cl)cc2Cl)CC1`
### Response 33

### Prompt Specify reported IC50 for the molecule shown: `O=C(/C=C/c1ccccc1Sc1ccc(Cl)cc1Cl)NCCCCCCO`
### Response 100

### Prompt Specify reported IC50 for the molecule shown: `O=C(/C=C/c1cccc(Sc2ccc(Cl)cc2Cl)c1)N(CCO)CCO`
### Response 15

### Prompt Specify reported IC50 for the molecule shown: `O=C(/C=C/c1ccc(Sc2ccc(Cl)cc2Cl)c(Cl)c1)NCCCN1CCCC1=O`
### Response 0.55

### Prompt Specify reported IC50 for the molecule shown: `O=C(/C=C/c1cccc(Sc2ccc(Cl)cc2Cl)c1)N1CCOCC1`
### Response 16.5

### Prompt Specify reported IC50 for the molecule shown: `O=C(O)CNC(=O)/C=C/c1ccccc1Sc1ccc(Cl)cc1Cl`
### Response 3.9

### Prompt Specify reported IC50 for the molecule shown: `O=C(O)/C=C/c1ccccc1Sc1ccc(Cl)cc1Cl`
### Response 2.6

More entries:
### Prompt Specify reported IC50 for the molecule shown: `O=CN1CCN(Cc2ccccc2Sc2ccc(/C=C/C(=O)N3CCOCC3)cc2Cl)CC1`
### Response 0.42

###

# TARGET UNDER TEST: Intercellular adhesion molecule (ICAM-1), Integrin alpha-L/beta-2 (Homo sapiens, UniProt P05107+P20701)
# EXPERIMENT NOTES: Ability to block the interaction between integrin LFA-1 and its adhesion partner ICAM-1 in a time-resolved fluorescent LFA-1/ICAM-1 biochemical interaction assay
# Assay type: protein-complex assay
MEASURED ATTRIBUTE: IC50 (nM)
Answers are plain numbers, in nM.

### Prompt Specify reported IC50 for the compound shown: `CC(=O)N1CCN(C(=O)/C=C/c2ccc(Sc3ccccc3Cl)c([N+](=O)[O-])c2)CC1`
### Response 110

### Prompt Specify reported IC50 for the compound shown: `CC(=O)N1CCN(C(=O)/C=C/c2ccc(Sc3ccccc3N)c([N+](=O)[O-])c2)CC1`
### Response 620

### Prompt Specify reported IC50 for the compound shown: `O=C(/C=C/c1ccc(Sc2ccc(Cl)cc2Cl)c(Cl)c1)NCCCn1ccnc1`
### Response 1400

### Prompt Specify reported IC50 for the compound shown: `CC(=O)N1CCN(C(=O)/C=C/c2ccc(Sc3ccccc3N(C)C)c([N+](=O)[O-])c2)CC1`
### Response 310

### Prompt Specify reported IC50 for the compound shown: `O=C(/C=C/c1ccc(Sc2ccc(Cl)cc2Cl)c(Cl)c1)N(CCO)CCO`
### Response 710

The following compounds each have a reported value; give each one's IC50.
1. O=C(O)/C=C/c1ccc(Sc2ccc(Cl)cc2Cl)c(Cl)c1
2. O=C(/C=C/c1ccccc1Sc1ccc(Cl)cc1Cl)NCC(O)CO (stereo not drawn)
3. O=Cc1cc(/C=C/C(=O)N2CCOCC2)ccc1Sc1ccc(Cl)cc1Cl
4. O=C(/C=C/c1ccccc1Sc1ccc(Cl)cc1Cl)NCC1CCCO1 (stereo not drawn)
5. O=C(CCN1CCOCC1)Nc1ccccc1Sc1ccc(Cl)cc1Cl
6. O=C(/C=C/c1ccc(Sc2ccccc2/C=C/C(=O)N2CCOCC2)c(Cl)c1)N1CCOCC1

### Response
2600
3800
610
2100
12000
180

The following compounds each have a reported value; give each one's IC50.
1. CN(C)CCNCc1ccccc1Sc1ccc(Cl)cc1Cl
2. O=C(/C=C/c1ccccc1Sc1ccc(Cl)cc1Cl)N(CCO)CCO
3. Nc1cc(/C=C/C(=O)NCCCN2CCCC2=O)ccc1Sc1ccc(Cl)cc1Cl

### Response
[5600, 2300, 19000]

The following compounds each have a reported value; give each one's IC50.
1. CCCN(CCC)CCC(=O)Nc1ccccc1Sc1ccc(Cl)cc1Cl
2. O=C(/C=C/c1cccc(Sc2ccc(Cl)cc2Cl)c1)NCCCN1CCCC1=O
3. O=C(/C=C/c1ccc(Sc2ccccc2NCCCN2CCOCC2)c(Cl)c1)N1CCOCC1
4. O=C(/C=C/c1ccc(Sc2ccc(Cl)cc2Cl)c([N+](=O)[O-])c1)NCCCN1CCCC1=O
5. O=C(/C=C/c1ccc(Sc2ccccc2CN2CCN(Cc3ccc4c(c3)OCO4)CC2)c(Cl)c1)N1CCOCC1

### Response
[61000, 4500, 180, 170, 100]
